experimental target: wild-type Epidermal Growth Factor Receptor (EGFR) (Homo sapiens (Human), UniProt P00533)
Sequence (P00533 669-1210): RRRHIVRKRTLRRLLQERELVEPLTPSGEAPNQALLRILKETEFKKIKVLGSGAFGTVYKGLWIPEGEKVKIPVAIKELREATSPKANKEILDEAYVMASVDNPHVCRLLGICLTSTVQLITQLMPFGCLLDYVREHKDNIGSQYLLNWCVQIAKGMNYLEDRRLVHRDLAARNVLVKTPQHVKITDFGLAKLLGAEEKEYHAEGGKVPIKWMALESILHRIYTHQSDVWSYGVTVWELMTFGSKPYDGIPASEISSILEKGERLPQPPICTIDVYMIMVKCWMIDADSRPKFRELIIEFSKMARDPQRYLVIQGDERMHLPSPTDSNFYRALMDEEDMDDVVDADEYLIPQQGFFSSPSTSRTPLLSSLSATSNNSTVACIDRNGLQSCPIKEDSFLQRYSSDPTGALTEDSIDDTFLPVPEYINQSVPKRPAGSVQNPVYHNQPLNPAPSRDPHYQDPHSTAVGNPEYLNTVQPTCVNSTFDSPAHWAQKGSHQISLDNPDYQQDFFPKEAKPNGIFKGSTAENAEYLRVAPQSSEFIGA
experiment: WT-EGFR Kinase Assay (TR-FRET, 2 mM ATP)
Format: biochemical
conditions used: read-out: EGFR Wildtyp 2 mM ATP IC50 [mol/l] (median), median or individual measurements, listed as 084
readout: IC50 (µM)
Number in µM, nothing else.

Noted for `CC1(C)Cc2[nH]c(-c3ccnc(NC(=O)Cc4ccc(F)cc4)c3)c(-c3ccccc3F)c2C(=O)N1` : its IC50 reads 16

---

readout: pIC50
Quick note: pIC50 means taking -log10 of the concentration in moles per liter.

Item Cn1ccc2[nH]c(-c3ccnc(NC(=O)C(CC(F)F)c4ccc(F)cc4)c3)c(-c3ccc(F)cc3)c2c1=O (single isomer, unassigned; (+)) [Example 109] ; assay system CSNK1A1 (Homo sapiens (Human), UniProt P48729); pIC50 reported as 8.68

Item CC1(C)Cc2[nH]c(-c3ccnc(NC(=O)Cc4ccc(F)cc4)c3)c(-c3cccnc3)c2C(=O)N1 [Example 93] ; assay system CSNK1A1 (Homo sapiens (Human), UniProt P48729); pIC50 reported as 8.40

Item CC(C(=O)Nc1cc(-c2[nH]c3c(c2-c2ccccc2)C(=O)NCC3(C)C)ccn1)c1ccc(F)cc1 (single isomer, unassigned) [Example 48] ; assay system CSNK1A1 (Homo sapiens (Human), UniProt P48729); pIC50 reported as 8.74

Item CC(C(=O)Nc1cc(-c2[nH]c3ccn(C)c(=O)c3c2-c2ccc(Cl)s2)ccn1)c1ccc(F)cc1 (racemic) [Example 122] ; assay system CSNK1A1 (Homo sapiens (Human), UniProt P48729); pIC50 reported as 8.44

Item CC(C(=O)Nc1cc(-c2[nH]c3ccn(C)c(=O)c3c2-c2cc(F)ccc2C#N)ccn1)c1ccc(F)cc1 (racemic) [Example 127] ; assay system CSNK1A1 (Homo sapiens (Human), UniProt P48729); pIC50 reported as 7.48

Item O=C(Nc1cc(-c2[nH]c3ccn(C4CC4)c(=O)c3c2-c2ccccc2)ccn1)C(CC(F)F)c1ccc(F)cc1 (single isomer, unassigned) [Example 158] ; assay system CSNK1A1 (Homo sapiens (Human), UniProt P48729); pIC50 reported as 8.49

---

experimental target: CSNK1A1 (Homo sapiens (Human))
Sequence (P48729 whole entry): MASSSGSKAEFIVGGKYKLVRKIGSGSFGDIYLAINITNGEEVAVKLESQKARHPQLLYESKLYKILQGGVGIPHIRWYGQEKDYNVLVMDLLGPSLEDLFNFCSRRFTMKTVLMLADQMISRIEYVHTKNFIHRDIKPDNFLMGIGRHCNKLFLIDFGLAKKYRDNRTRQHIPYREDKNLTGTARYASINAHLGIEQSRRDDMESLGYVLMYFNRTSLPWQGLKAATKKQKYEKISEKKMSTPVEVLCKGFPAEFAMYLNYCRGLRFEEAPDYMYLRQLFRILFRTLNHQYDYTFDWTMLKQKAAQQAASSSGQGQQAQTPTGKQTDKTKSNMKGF
readout: pIC50
Quick note: pIC50 means taking -log10 of the concentration in moles per liter.

Noted for O=C(Nc1cc(-c2[nH]c3c(c2-c2ccccc2)C(=O)N(C2CC2)CC3)ccn1)C(CC(F)F)c1ccc(F)cc1 (racemic) : its pIC50 reads 8.64

Noted for Cc1ccc(-c2c(-c3ccnc(NC(=O)C(C)c4ccc(F)cc4)c3)[nH]c3ccn(C)c(=O)c23)s1 (racemic) : its pIC50 reads 8.48

Noted for `CN1CCc2[nH]c(-c3ccnc(NC(=O)Cc4ccc(C(=O)N5CCNCC5)cc4)c3)c(-c3ccc(F)cc3)c2C1=O` : its pIC50 reads 8.70

Noted for CN1CC(CC(F)(F)F)c2[nH]c(-c3ccnc(NC(=O)C(CC(F)F)c4ccc(F)cc4)c3)c(-c3ccccc3)c2C1=O (stereo not shown) : its pIC50 reads 8.33

Noted for O=C(Nc1cc(-c2[nH]c3ccn(C4CC4)c(=O)c3c2-c2ccc(F)cc2)ccn1)C(CC(F)F)c1ccc(F)cc1 (racemic) [Example 134] : its pIC50 reads 8.26

Noted for CN1CCc2[nH]c(-c3ccnc(NC(=O)C(CC(F)F)c4ccc(F)cc4)c3)c(-c3ccc(F)cc3F)c2C1=O (racemic) [Example 66] : its pIC50 reads 8.36

Noted for Cc1cn(C)c(=O)c2c(-c3ccc(F)cc3)c(-c3ccnc(NC(=O)C(CC(F)F)c4ccc(F)cc4)c3)[nH]c12 (single isomer, unassigned; (+)) [Example 36] : its pIC50 reads 8.46

Noted for Cn1ccc2[nH]c(-c3ccnc(NC(=O)C(CC(F)F)c4ccc(F)cc4)c3)c(-c3ccc(F)cc3)c2c1=O (single isomer, unassigned; (-)) [Example 108] : its pIC50 reads 7.82

Noted for CC(C(=O)Nc1cc(-c2[nH]c3c(c2-c2ccc(F)cc2)C(=O)N(C)CC3CC2CC2)ccn1)c1ccc(F)cc1 (stereo not shown) : its pIC50 reads 8.12

Noted for O=C(Nc1cc(-c2[nH]c3ccn(C4CC4)c(=O)c3c2-c2ccc(F)cc2)ccn1)C(CC(F)F)c1ccc(F)cc1 (single isomer, unassigned; (+)) [Example 136] : its pIC50 reads 8.51

Noted for CC(C(=O)Nc1cc(-c2[nH]c3c(CC4CC4)cn(C)c(=O)c3c2-c2ccc(F)cc2)ccn1)c1ccc(F)cc1 (racemic) : its pIC50 reads 7.92

Noted for `CC1(C)Cc2[nH]c(-c3ccnc(NC(=O)Cc4ccc(F)cc4)c3)c(-c3ccc(Cl)cc3)c2C(=O)N1` : its pIC50 reads 8.49

Noted for CC(C(=O)Nc1cc(-c2[nH]c3c(c2-c2ccc(F)cc2)C(=O)NC(C)(C)C3)ccn1)c1ccc(F)cc1 (single isomer, unassigned) [Example 96] : its pIC50 reads 8.89

Noted for CC(C(=O)Nc1cc(-c2[nH]c3ccn(C)c(=O)c3c2-c2cc(F)c(F)c(F)c2)ccn1)c1ccc(F)cc1 (racemic) : its pIC50 reads 8.33

Noted for Cn1ccc2[nH]c(-c3ccnc(NC(=O)C(CC(F)F)c4ccc(F)cc4)c3)c(-c3cccnc3)c2c1=O (racemic) : its pIC50 reads 8.07

Noted for CC(C(=O)Nc1cc(-c2[nH]c3c(c2-c2ccccc2)C(=O)NCC3)ccn1)c1ccc(F)cc1 (racemic) : its pIC50 reads 8.80

Noted for CC(C(=O)Nc1cc(-c2[nH]c3ccn(C)c(=O)c3c2-c2ccccc2)ccn1)c1ccc(F)cc1 (single isomer, unassigned) [Example 104] : its pIC50 reads 8.15

Noted for Cn1cc(CC(F)F)c2[nH]c(-c3ccnc(NC(=O)C(CC(F)F)c4ccc(F)cc4)c3)c(-c3ccccc3)c2c1=O (single isomer, unassigned) [Example 149] : its pIC50 reads 8.43

Noted for CC(C(=O)Nc1cc(-c2[nH]c3ccn(C)c(=O)c3c2-c2ccc(F)c(F)c2)ccn1)c1ccc(F)cc1 (racemic) : its pIC50 reads 8.32

Noted for CC(C(=O)Nc1cc(-c2[nH]c3ccn(C)c(=O)c3c2-c2cc(F)ccc2F)ccn1)c1ccc(F)cc1 (racemic) : its pIC50 reads 8.19

Noted for CC(C(=O)Nc1cc(-c2[nH]c3c(c2-c2ccc(Cl)cc2)C(=O)NC(C)(C)C3)ccn1)c1ccc(F)cc1 (racemic) : its pIC50 reads 8.17

Noted for CC(C(=O)Nc1cc(-c2[nH]c3c(c2-c2ccccc2)C(=O)N(C)C2(CCC2)C3)ccn1)c1ccc(F)cc1 (racemic) [Example 52] : its pIC50 reads 8.47

Noted for CN1CCc2[nH]c(-c3ccnc(NC(=O)C(CC(F)F)c4ccc(F)cc4)c3)c(-c3cc(F)ccc3C#N)c2C1=O (racemic) : its pIC50 reads 7.85

Noted for CC(C(=O)Nc1cc(-c2[nH]c3c(c2-c2ccccc2)C(=O)NCC3(C)C)ccn1)c1ccc(F)cc1 (single isomer, unassigned) [Example 47] : its pIC50 reads 7.89

Noted for `CC1(C)CNC(=O)c2c1[nH]c(-c1ccnc(NC(=O)Cc3ccc(F)cc3)c1)c2-c1ccccc1` : its pIC50 reads 8.92
